ASSAY_TARGET: Melanocortin receptor 3 (Homo sapiens, UniProt P41968); also: in other assays of this panel Not Active means under 50% inhibition at 10 µM
Sequence (P41968 whole entry): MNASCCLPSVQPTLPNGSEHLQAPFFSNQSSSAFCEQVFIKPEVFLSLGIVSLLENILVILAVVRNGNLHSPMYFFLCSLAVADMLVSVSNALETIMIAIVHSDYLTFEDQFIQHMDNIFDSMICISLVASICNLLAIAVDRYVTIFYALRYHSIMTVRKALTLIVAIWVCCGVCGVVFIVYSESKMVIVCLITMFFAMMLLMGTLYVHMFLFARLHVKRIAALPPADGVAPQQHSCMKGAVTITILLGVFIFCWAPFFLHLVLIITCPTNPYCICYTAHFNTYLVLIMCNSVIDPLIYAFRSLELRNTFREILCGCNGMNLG
Format: cell membranes, Membrane
CONDITION_DETAILS: hek293
Where a SMILES comes first, the peptide text is derived from it. Bridges are numbered along the chain shown (N, C = ends). [ ]: non-standard residue; d: D form. The star is where a group is joined. Ileψ(thiazoline)Cys = CC[C@H](C)[C@H](N)C1=N[C@H](C(=O)*)CS1; dOrn = NCCC[C@@H](N)C(=O)O

MOLECULE	IC50
NCCCC[C@H](N[C@@H](CCc1ccccc1)C(=O)O)C(=O)N1CCC[C@H]1C(=O)O [LISINOPRIL ANHYDROUS]	Not Active
NC(=O)c1ncn([C@@H]2O[C@H](CO)[C@@H](O)[C@H]2O)n1 [RIBAVIRIN]	Not Active
CC[C@H](C)[C@H](N)C1=N[C@H](C(=O)N[C@@H](CC(C)C)C(=O)N[C@H](CCC(=O)O)C(=O)N[C@H](C(=O)N[C@H]2CCCCNC(=O)[C@H](CC(N)=O)NC(=O)[C@@H](CC(=O)O)NC(=O)[C@H](Cc3cnc[nH]3)NC(=O)[C@@H](Cc3ccccc3)NC(=O)[C@H]([C@@H](C)CC)NC(=O)[C@@H](CCCN)NC2=O)[C@@H](C)CC)CS1 [BACITRACIN] ({Ileψ(thiazoline)Cys}-L[dE]IK[dOrn]I[dF]H[dD]N; lactam 4-C)	Not Active

====

ASSAY_TARGET: UniProt P05177
Sequence (P05177 whole entry): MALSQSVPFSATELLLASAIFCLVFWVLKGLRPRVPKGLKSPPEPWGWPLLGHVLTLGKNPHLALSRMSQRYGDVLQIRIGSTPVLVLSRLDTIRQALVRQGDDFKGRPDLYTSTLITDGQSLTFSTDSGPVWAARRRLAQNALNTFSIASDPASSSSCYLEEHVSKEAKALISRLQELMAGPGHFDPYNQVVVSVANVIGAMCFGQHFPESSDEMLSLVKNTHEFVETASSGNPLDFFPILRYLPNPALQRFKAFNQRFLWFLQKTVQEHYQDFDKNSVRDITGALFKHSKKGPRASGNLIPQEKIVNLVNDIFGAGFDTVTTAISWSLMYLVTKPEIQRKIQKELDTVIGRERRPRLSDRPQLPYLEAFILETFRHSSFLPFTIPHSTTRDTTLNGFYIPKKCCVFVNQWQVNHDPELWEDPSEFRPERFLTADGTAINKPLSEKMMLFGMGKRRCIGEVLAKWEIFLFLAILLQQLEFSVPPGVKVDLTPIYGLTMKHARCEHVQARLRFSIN
CONDITION_DETAILS: bti-tn-5b1-4
QUANTITY_NAME: Ki

COMPOUND	ASSAY_TARGET	OBSERVED_RESULT
CN[C@H](CC(C)C)C(=O)N[C@H]1C(=O)N[C@@H](CC(N)=O)C(=O)N[C@H]2C(=O)N[C@H]3C(=O)N[C@H](C(=O)N[C@H](C(=O)O)c4cc(O)cc(O)c4-c4cc3ccc4O)[C@H](O)c3ccc(c(Cl)c3)Oc3cc2cc(c3O[C@@H]2O[C@H](CO)[C@@H](O)[C@H](O)[C@H]2O[C@H]2C[C@](C)(N)[C@H](O)[C@H](C)O2)Oc2ccc(cc2Cl)[C@H]1O [VANCOMYCIN]	UniProt P05177	Not Active
Oc1c(Cl)cc(Cl)cc1Sc1cc(Cl)cc(Cl)c1O [BITHIONOL]	UniProt P05177	Not Active

====

ASSAY_TARGET: Polyunsaturated fatty acid lipoxygenase ALOX15 (Oryctolagus cuniculus); also: in other assays of this panel Not Active means under 50% inhibition at 10 µM;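 also: inhibition of 15-lipoxygenase enzyme activity measured with linoleic acid as the substrate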
Sequence (P12530 whole entry): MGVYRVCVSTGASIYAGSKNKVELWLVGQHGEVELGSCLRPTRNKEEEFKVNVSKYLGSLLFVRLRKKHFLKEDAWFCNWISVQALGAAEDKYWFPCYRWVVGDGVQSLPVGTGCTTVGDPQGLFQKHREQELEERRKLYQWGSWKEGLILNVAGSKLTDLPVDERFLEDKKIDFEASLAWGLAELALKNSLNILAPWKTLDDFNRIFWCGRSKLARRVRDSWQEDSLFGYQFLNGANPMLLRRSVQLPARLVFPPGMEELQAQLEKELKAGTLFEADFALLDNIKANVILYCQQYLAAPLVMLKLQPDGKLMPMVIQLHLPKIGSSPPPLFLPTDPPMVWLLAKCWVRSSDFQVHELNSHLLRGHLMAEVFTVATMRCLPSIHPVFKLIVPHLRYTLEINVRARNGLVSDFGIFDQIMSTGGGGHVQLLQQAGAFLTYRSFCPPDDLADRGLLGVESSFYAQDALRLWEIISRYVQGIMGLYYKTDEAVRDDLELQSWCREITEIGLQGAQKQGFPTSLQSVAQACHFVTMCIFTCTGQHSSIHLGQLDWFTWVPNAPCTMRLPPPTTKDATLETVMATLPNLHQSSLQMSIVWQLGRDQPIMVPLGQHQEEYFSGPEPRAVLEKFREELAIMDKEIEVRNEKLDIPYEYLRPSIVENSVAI
PROTOCOL_SUMMARY: biochemical
Type: tissue-based, Reticulocytes
CONDITION_DETAILS: reticulocytes
QUANTITY_NAME: Ki

Example results:
SUBSTANCE	Ki
GOLD SODIUM THIOMALATE	Not Active
OXALIPLATIN	Not Active
IVERMECTIN	Not Active
CISPLATIN	Not Active

Proceeding to the next substance to report its Ki.
Polyunsaturated fatty acid lipoxygenase ALOX15 (Oryctolagus cuniculus) assay, substance CARBOPLATIN , recorded Ki = Not Active

====

ASSAY_TARGET: Voltage-gated inwardly rectifying potassium channel KCNH2 (Homo sapiens); also: in other assays of this panel Not Active means under 50% inhibition at 10 µM
Sequence (Q12809 whole entry): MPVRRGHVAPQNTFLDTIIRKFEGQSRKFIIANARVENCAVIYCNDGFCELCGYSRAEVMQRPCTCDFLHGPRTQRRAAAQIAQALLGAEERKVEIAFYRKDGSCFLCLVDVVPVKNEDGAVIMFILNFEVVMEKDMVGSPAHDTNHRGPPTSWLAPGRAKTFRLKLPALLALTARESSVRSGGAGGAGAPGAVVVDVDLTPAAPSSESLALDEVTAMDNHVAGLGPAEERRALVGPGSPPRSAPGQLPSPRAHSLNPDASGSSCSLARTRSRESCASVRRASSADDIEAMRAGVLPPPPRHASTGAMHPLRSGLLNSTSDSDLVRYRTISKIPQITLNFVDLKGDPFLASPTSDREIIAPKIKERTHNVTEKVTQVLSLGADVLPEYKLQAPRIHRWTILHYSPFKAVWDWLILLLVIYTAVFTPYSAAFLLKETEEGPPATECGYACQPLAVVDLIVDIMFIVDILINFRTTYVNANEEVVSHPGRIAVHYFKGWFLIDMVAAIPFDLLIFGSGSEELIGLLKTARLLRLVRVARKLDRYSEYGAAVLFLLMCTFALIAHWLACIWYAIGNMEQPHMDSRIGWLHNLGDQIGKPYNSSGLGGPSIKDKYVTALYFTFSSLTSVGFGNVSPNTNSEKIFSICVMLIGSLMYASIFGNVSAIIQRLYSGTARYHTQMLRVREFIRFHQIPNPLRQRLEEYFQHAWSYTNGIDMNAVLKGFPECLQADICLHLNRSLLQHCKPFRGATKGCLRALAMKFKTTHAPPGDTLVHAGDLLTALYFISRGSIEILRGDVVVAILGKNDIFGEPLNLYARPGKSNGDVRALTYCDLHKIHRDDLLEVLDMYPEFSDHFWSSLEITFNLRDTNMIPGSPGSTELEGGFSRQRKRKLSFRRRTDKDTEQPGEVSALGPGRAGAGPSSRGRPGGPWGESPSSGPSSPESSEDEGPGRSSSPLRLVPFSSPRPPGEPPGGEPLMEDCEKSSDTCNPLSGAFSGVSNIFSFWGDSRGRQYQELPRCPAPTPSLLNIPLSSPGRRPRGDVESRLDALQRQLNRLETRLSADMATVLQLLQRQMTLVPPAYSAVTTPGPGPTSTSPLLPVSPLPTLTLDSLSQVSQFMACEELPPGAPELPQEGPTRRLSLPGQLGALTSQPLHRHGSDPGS
CONDITION_DETAILS: hek293

COMPOUND	ASSAY_TARGET	IC50
CN[C@@H]1[C@@H](O)[C@@H](O[C@@H]2[C@@H](O)[C@H](O[C@H]3OC(CN)=CC[C@H]3N)[C@@H](N)C[C@H]2N)OC[C@]1(C)O	Voltage-gated inwardly rectifying potassium channel KCNH2 (Homo sapiens)	Not Active
C=CC[C@@H]1/C=C(\C)C[C@H](C)C[C@H](OC)[C@H]2O[C@@](O)(C(=O)C(=O)N3CCCC[C@H]3C(=O)O[C@H](/C(C)=C/[C@@H]3CC[C@@H](O)[C@H](OC)C3)[C@H](C)[C@@H](O)CC1=O)[C@H](C)C[C@@H]2OC [TACROLIMUS ANHYDROUS]	Voltage-gated inwardly rectifying potassium channel KCNH2 (Homo sapiens)	Not Active
Clc1ccccc1C(c1ccccc1)(c1ccccc1)n1ccnc1	Voltage-gated inwardly rectifying potassium channel KCNH2 (Homo sapiens)	Not Active

====

ASSAY_TARGET: 5-hydroxytryptamine receptor 2C (Homo sapiens)
Sequence (P28335 whole entry): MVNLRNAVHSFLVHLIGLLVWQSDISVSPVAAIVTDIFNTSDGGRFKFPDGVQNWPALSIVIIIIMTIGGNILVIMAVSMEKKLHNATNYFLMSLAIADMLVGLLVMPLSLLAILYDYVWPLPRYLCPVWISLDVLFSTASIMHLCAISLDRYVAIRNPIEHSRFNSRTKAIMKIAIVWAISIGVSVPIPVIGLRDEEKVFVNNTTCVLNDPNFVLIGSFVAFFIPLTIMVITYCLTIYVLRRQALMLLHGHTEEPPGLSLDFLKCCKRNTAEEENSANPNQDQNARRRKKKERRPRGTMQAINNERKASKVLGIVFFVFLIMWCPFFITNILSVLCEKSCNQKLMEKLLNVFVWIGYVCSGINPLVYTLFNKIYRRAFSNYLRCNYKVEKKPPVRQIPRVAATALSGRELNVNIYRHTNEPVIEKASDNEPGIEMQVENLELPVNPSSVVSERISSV
PROTOCOL_SUMMARY: DRUGMATRIX: Serotonin (5-Hydroxytryptamine) 5-HT2C radioligand binding (ligand: [3H] Mesulergine)
Type: cell membranes, CHO-K1, Membrane
CONDITION_DETAILS: cho-k1; Not Active = under 50% inhibition at 10 µM
QUANTITY_NAME: IC50

Would you please look over these solved cases?
COMPOUND	ASSAY_TARGET	QUANTITY_NAME	OBSERVED_RESULT
O=C1NC(=O)C(c2ccccc2)(c2ccccc2)N1	5-hydroxytryptamine receptor 2C (Homo sapiens)	IC50	Not Active
CC1(C)[C@H]2CC[C@]1(C)C(=O)C2 [(-)-CAMPHOR]	5-hydroxytryptamine receptor 2C (Homo sapiens)	IC50	Not Active
CN[C@@H]1[C@@H](O)[C@@H](O[C@@H]2[C@@H](O)[C@H](O[C@H]3OC(CN)=CC[C@H]3N)[C@@H](N)C[C@H]2N)OC[C@]1(C)O	5-hydroxytryptamine receptor 2C (Homo sapiens)	IC50	Not Active
CCc1ccc(C(=O)C(C)CN2CCCCC2)cc1 (stereo not drawn)	5-hydroxytryptamine receptor 2C (Homo sapiens)	IC50	Not Active
Cc1c(-c2ccccc2)oc2c(C(=O)OCCN3CCCCC3)cccc2c1=O [FLAVOXATE]	5-hydroxytryptamine receptor 2C (Homo sapiens)	IC50	Not Active
CC1=C(/C=C/C(C)=C/C=C/C(C)=C\C(=O)O)C(C)(C)CCC1	5-hydroxytryptamine receptor 2C (Homo sapiens)	IC50	Not Active
NNC(=O)c1ccncc1	5-hydroxytryptamine receptor 2C (Homo sapiens)	IC50	Not Active
COc1ccc(C(CN(C)C)C2(O)CCCCC2)cc1 (stereo not drawn)	5-hydroxytryptamine receptor 2C (Homo sapiens)	IC50	Not Active
O=C1OC2(c3ccc(O)cc3Oc3cc(O)ccc32)c2ccccc21	5-hydroxytryptamine receptor 2C (Homo sapiens)	IC50	Not Active
NC(CO)(CO)CO	5-hydroxytryptamine receptor 2C (Homo sapiens)	IC50	Not Active

compound c1ccc2c(c1)cc1ccc3cccc4ccc2c1c34 , IC50 observed: Not Active

// field: IC50; key: NC(=O)c1ccccc1O [SALICYLAMIDE] ; value = Not Active

Recorded result, CC[C@@]1(O)C(=O)OCc2c1cc1n(c2=O)Cc2cc3ccccc3nc2-1 , IC50: Not Active

Just so you know, measured IC50 for CC(=O)O[C@]1(C(C)=O)CC[C@H]2[C@@H]3C=C(Cl)C4=CC(=O)CC[C@]4(C)[C@H]3CC[C@@]21C [CHLORMADINONE ACETATE] came out at Not Active

Sure, the documented IC50 for CCC[C@@H]1C[C@@H](C(=O)N[C@@H]([C@H]2O[C@H](SC)[C@H](O)[C@@H](O)[C@H]2O)[C@@H](C)O)N(C)C1 is Not Active

Record CN1[C@@H]2CC[C@H]1C[C@@H](OC(=O)c1c[nH]c3ccccc13)C2 . Reported IC50: Not Active

Sample CC[N+](CC)(CC)CCOc1cccc(OCC[N+](CC)(CC)CC)c1OCC[N+](CC)(CC)CC.[I-].[I-].[I-] [GALLAMINE TRIETHIODIDE] ; IC50 observed: Not Active

Entry under test: CC1CN(c2cc3c(cc2F)c(=O)c(C(=O)O)cn3-c2ccc(F)cc2F)CCN1 (stereo not drawn) . Its IC50 was Not Active

====

ASSAY_TARGET: Cytochrome P450 1A2 (Homo sapiens); also: in other assays of this panel Not Active means under 50% inhibition at 10 µM
Sequence (P05177 whole entry): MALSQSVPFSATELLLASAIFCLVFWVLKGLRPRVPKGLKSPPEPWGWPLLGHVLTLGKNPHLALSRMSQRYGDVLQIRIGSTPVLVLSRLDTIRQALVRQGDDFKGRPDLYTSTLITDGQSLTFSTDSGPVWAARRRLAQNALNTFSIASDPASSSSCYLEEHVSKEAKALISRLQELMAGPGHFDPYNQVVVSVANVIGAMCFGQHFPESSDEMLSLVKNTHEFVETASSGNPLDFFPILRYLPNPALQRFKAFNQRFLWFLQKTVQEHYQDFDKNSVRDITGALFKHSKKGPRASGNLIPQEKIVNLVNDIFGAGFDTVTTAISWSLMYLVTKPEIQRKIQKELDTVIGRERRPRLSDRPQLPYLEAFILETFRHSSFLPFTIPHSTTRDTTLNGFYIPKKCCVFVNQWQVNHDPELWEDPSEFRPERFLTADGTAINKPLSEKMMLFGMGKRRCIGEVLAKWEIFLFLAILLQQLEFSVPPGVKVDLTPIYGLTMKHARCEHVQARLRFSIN
CONDITION_DETAILS: bti-tn-5b1-4
QUANTITY_NAME: Ki

MOLECULE	ASSAY_TARGET	Ki
NCC1(CC(=O)O)CCCCC1 [GABAPENTIN]	Cytochrome P450 1A2 (Homo sapiens)	Not Active
COc1c(N2CCNC(C)C2)c(F)cc2c(=O)c(C(=O)O)cn(C3CC3)c12 (centres undefined) [GATIFLOXACIN]	Cytochrome P450 1A2 (Homo sapiens)	Not Active
Cn1cnc([N+](=O)[O-])c1Sc1ncnc2nc[nH]c12 [AZATHIOPRINE]	Cytochrome P450 1A2 (Homo sapiens)	Not Active
CC(C)n1c(/C=C/C(O)CC(O)CC(=O)O)c(-c2ccc(F)cc2)c2ccccc21 (centres undefined) [FLUVASTATIN]	Cytochrome P450 1A2 (Homo sapiens)	Not Active

For the next question, use this molecule.
COc1ccc(CN(CCN(C)C)c2ccccn2)cc1 [PYRILAMINE] has a reported Ki of Not Active

Origin of the recorded values: ChEMBL document CHEMBL1909046
